- System: T1, cynomolgus monkey CTLA-4 ECD-6×His (cynomolgus monkey)
- T1 construct: extracellular domain; Bought; also called cynomoguls monkey CTLA-4.ECD-6×His
- Test details: SPR, antibody captured on anti-human Fc, CTLA-4.ECD-6×His as analyte, 1:1 fit
Kd by entry:
Quick reminder: number only, in pM, skip the unit.

{"Binder": "W3162_1.145.10-z7-uAb.IgG1K (antibody, V domains shown, Humanized; label says IgG1K; also called W145) VH: EVQLVESGGGLVQPGGSLRLSCAASDLTFSNYDMAWVRQAPGKGLEWVASISPSGGNTYYRDSVKGRFTISRDNAKNSLYLQMNSLRAEDTAVYYCARHLWFAYWGQGTLVTVSS VL: DIQMTQSPSSLSASVGDRVTITCQASQDIGSNLIWFQQKPGKAPKPMIYYATHLADGVPSRFSGSRSGTDYTLTISSLQPEDFATYYCLQYKQYPRTFGGGTKVEIK", "Unit of measurement": "pM", "Kd": 598}

As a next step, examine the binder that follows.
Incoming: # query: Kd of entry W3162-1.154.8 xAb.IgG1 (antibody, V domains shown, Chimeric: rat variable regions fused with constant region of human antibody (label xAb.IgG1)) VH: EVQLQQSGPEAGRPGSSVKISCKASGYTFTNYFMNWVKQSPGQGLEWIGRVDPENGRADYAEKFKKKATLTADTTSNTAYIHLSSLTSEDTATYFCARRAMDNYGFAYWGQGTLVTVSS VL: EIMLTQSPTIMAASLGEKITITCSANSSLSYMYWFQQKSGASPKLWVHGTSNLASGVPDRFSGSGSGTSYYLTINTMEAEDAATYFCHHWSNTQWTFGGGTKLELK
Outgoing: 87.2

Entry source: patent US20200277377A1
